Tested on: peripheral blood lymphocytes collected from swine exposed to ASFV
Assay type: cell-based
Kindly state Number of Spots for each of the entries shown.
Lab note: write the figure by itself, no unit.

Q: For the substance 321 (KRHKNHLY) [compound 321] , what Number of Spots is on record?
Ans: 14

Q: For the substance 275 (ATYNHRKILIY) [compound 275] , what Number of Spots is on record?
Ans: 21

Q: For the substance 1830 (SVMALAKMY) [compound 1830] , what Number of Spots is on record?
Ans: 12

Q: For the substance 585 (VVDDVPSIDY) [compound 585] , what Number of Spots is on record?
Ans: 12

Q: For the substance 285 (QAMLSSIQYY) [compound 285] , what Number of Spots is on record?
Ans: 14

Q: For the substance 633 (ILEGVLGYF) [compound 633] , what Number of Spots is on record?
Ans: 14

Q: For the substance 1824 (SMMDFERVHY) [compound 1824] , what Number of Spots is on record?
Ans: 14

Q: For the substance 1227 (ETYARLSSY) [compound 1227] , what Number of Spots is on record?
Ans: 12

Q: For the substance 726 (DMYSVIFNIKY) [compound 726] , what Number of Spots is on record?
Ans: 14

Q: For the substance 2266 (YRHFKDWRL) [compound 2266] , what Number of Spots is on record?
Ans: 14

Q: For the substance 1749 (TLDFDRMWY) [compound 1749] , what Number of Spots is on record?
Ans: 15

Q: For the substance 2125 (TAIQKNYFR) [compound 2125] , what Number of Spots is on record?
Ans: 14

Q: For the substance 2213 (KTSSNIILY) [compound 2213] , what Number of Spots is on record?
Ans: 12
